Each item that follows carries a reported apparent KD of MS2 coat protein.
# Test system: MS2 coat protein
# Protocol Description: apparent KD of MS2 coat protein; designed switch direction (-1 OFF switch, 1 ON switch): -1; higher = weaker reporter binding
# Particulars: input ligand: FMN 200 uM
Just the number in nM, nothing appended.

Query Sequence	apparent KD of MS2 coat protein (nM)
AACCUGAGGCAAAGCUUUAGGUGUACAUGAGGAUCACCCAUGUAGGAUAUGGUAGGCAAAGCUUACCAGAAGGACAUUAUGAUG [Mat - Exclusion NG 3 - Mod of JL - D51] (Eterna round: R96, puzzle: Exclusion NG 3)	104
CAACAGGGAGGAUAUACAUGAGGAUCACCCAUGUUCGAGCGUCCUUGAACUACCUCUGGUAGAAGGCCCACACG [Bibiorbi] (Eterna round: R97, puzzle: Exclusion 3)	147
CUUAGACAUGAGGAUCACCCAUGUGAGGAUAUGAUGCGAAUAAAGAAAGAAGAAAGCAUCAGAAGGCACAUAUG (Eterna round: R96, puzzle: Exclusion 1)	382
GCCGAAAAUGAGAGGAUAUGCCUAUGGAUACGUAGGCAGAAGGCACAUGAGGAUCACCCAUGUUCCUCAACGGC [JL-BMX4-4.26 Eli mod] (Eterna round: R97, puzzle: Brourd's mod of Exclusion 4)	19.4

Moving on to another sequence below.
Query string: Which apparent KD of MS2 coat protein value belongs to GGUGUGAGGCAGGAUAUGCAAUAUGUAAGUAAUGCAGAAGGGUCUACAUGAGGAUCACCCAUGUGUGCGGUAGA [Ex6 #3] (Eterna round: R97, puzzle: Exclusion 6) ?
Result string: 251

* * *

Each item that follows carries a reported apparent KD of MS2 coat protein.
# Test system: MS2 coat protein
# Protocol Description: apparent KD of MS2 coat protein, switch ON state; designed switch direction (-1 OFF switch, 1 ON switch): -1; higher = weaker reporter binding
# Particulars: FMN input: 0 or 200 uM; Eterna round: R93 (includes R88 designs)
The number alone won't do; follow it with the unit.

Consider the reported apparent KD of MS2 coat protein for these sequences:
Query Sequence	System Under Test	Reported Measurement
AACUGGGCAGGAUAUACAUGAGGAUCACCCAUGUAAAGAAAAGAAAGGUCCGAGGAAAGUAGAAGGGCCUGGAA [Variant 5 of Mod 1 of Ex3 sub 3, by Tesla's Dusciple Round 1]	MS2 coat protein	40.6 nM
AGCUACUGAGGAUAUACGAACAUGUCAAAAGACGUAAGGGAACAUGAGGAUCACCCAUGUAGAAGGCAGUAGCA [Diamond 49]	MS2 coat protein	44.5 nM

Query string: Give apparent KD of MS2 coat protein (MS2 coat protein) of the following sequence: AAAAAGAGAGGAUAUACAUGAGGAUCACCCAUGUAACAUUAAAUAAAUAAAAUAAAGUGUAGAAGGCUCAAAAA [65%, Moding Exclusion3-cac2, 24]
Result string: 27.9 nM

* * *

# System: K4 kissing-loop RNA reporter;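 also: bound reporter read as fluorescence of individual clusters on recovered sequencing chips by microscopy, with normalized cluster intensities fitted with a binding model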
# Protocol Description: apparent KD of K4 kissing-loop reporter; higher = weaker reporter binding
# Particulars: Eterna round: R107; input ligand: theophylline 20 uM
Observed Property: apparent KD of K4 kissing-loop reporter (nM)
Just the number in nM, nothing appended.

Consider the reported apparent KD of K4 kissing-loop reporter for these sequences:
Query Sequence	Result Unit	apparent KD of K4 kissing-loop reporter
UGUACCGAGUCAGGAUAUCAUAAUAAUCGAGUGAUGUUCGAAUAACGACUGACAAAGUCGGUCGAUUGAGAAGGGACUUGGUACU [FmnBS 7 #SwitchBubble #StaticStem]	nM	362
UUUAUUAAGACGGCCGCCACUGAAUUAGAGUGAUGUUCUAAAAUUACUAAAUUAAAUUUAUUCAACAGGACCGGGUCAAUUAUUA [JR_SSTryptoB_Sub010]	nM	432
UGACAUUGCUCAGAUACCAGACUUGAGGAUCACCCAAGUGCCAAAUAAACGUACAUAAAAGUCCCUUGGCAGCUGAGCAAUGUCU [TheoBX 11]	nM	99
UGUCAUUGGUCGGCCGCCACUAGAAGGUCAAAGACCAUGGAGUGAUGUUCUAAGACGAAAGUCACUAGGACCGGGACCGAUGACU [TrypBS 5 #SwitchBubble #K4Middle]	nM	918

Query string: Give apparent KD of K4 kissing-loop reporter (K4 kissing-loop RNA reporter) of the following sequence: CGCAGUGAUGUUGCGAAUAUAAUUACGGAAGGAGCGCGUGAAAACGCAGGUAGGUCGCCGUUUGGUAUGAUGGAAACAUCGUACC [Arginine A K4 10]
Result string: 115

Query string: Give apparent KD of K4 kissing-loop reporter (K4 kissing-loop RNA reporter) of the following sequence: UGUGUACCGGGAAGGAGCGUGAAUGAGAAUGGAUAUAGUGAUGUUAUAUAUACGAACGAAUCGCAGGUAGGUCGCCCGGAUCCCU [SSArgB.Y]
Result string: 444

Query string: Give apparent KD of K4 kissing-loop reporter (K4 kissing-loop RNA reporter) of the following sequence: AGUGUUGUAUGACGGUUUGUCACUUAGGAUCAGGAUAUAUAAACAAAUAGAAGGGAUGGCGGAGUGAUGUUCCGCCGGCCGCCAU [FMN A Exl V9]
Result string: 106

Query string: Give apparent KD of K4 kissing-loop reporter (K4 kissing-loop RNA reporter) of the following sequence: CUUAUUUCUCGCUAUGAUGUUAGUUGAGCCAAGGAUAUUAAUGAAUUAAGAAGGUGGGUUUUUAAGUGAUGUUUUGAGACUGGCA [theeternabot_exclusion_KL_FMN_A_27]
Result string: 727

Query string: Give apparent KD of K4 kissing-loop reporter (K4 kissing-loop RNA reporter) of the following sequence: AAAUACAUUUUAUUAUAUAACUUUUCAGAAGGAGCGUGGAAGUUCACAGGUAGGUCGCUGAAUAUUGGACUAGUGAUGUUAGUUA [JR_Nu_SSArginiA_Sub021]
Result string: 225

Query string: Give apparent KD of K4 kissing-loop reporter (K4 kissing-loop RNA reporter) of the following sequence: AAUAAAAUCACGGCCGCCACUGAUUUCCAUAUUAGGAGUGAUGUUCCUAUGACUAUAUAAUUUAACAGGACCGGGUGAAUAUUUA [JR_ExcTryptoB_Sub012]
Result string: 111

Query string: Give apparent KD of K4 kissing-loop reporter (K4 kissing-loop RNA reporter) of the following sequence: AAAUAGAUCAGUCACCCAGUGAUGUUGGAAGGAGCGUGCGAAAGCACAGGUAGGUCGCCAAAACCUAAGUGGCUGAUCAAAAUAA [#SwitchBubble 4 #K4Early]
Result string: 523

Query string: Give apparent KD of K4 kissing-loop reporter (K4 kissing-loop RNA reporter) of the following sequence: CGAGUCCUGAGGAGUGAUGUUCCUCGGCCACGAGGACCGGUACGGCCGCCACUCGUUACUCGGGCUUAGUAGCUAGCACUAAGCU [Quedmaon]
Result string: 232
